Every entry's value here was drawn from PubChem BioAssay (NCI).

Test system: SF-539 CNS
assay.notes: NCI tumour cell line growth inhibition, 48 h; in the data active = GI50 below about 0.43 µM; inactive = the rest
Classes used: yes = active, no = inactive

[[record]]
compound = "Cc1cc2cc3cc(C)c(N)cc3[n+](C)c2cc1N"
subject_of_test = "SF-539 CNS"
assigned_class = "no"

[[record]]
compound = "NC1=CC(=O)c2nc3ccccc3c3ccnc1c23"
subject_of_test = "SF-539 CNS"
assigned_class = "no"

[[record]]
compound = "COc1ccc(CCN2CCC(Nc3nc4ccccc4n3Cc3ccc(F)cc3)CC2)cc1"
subject_of_test = "SF-539 CNS"
assigned_class = "no"

[[record]]
compound = "CSC1=Nc2c(c(C)c(C)n2COC(CO)CO)C2=NC(=O)CC(C)N12 (stereo unspecified)"
subject_of_test = "SF-539 CNS"
assigned_class = "no"

[[record]]
compound = "N#Cc1c(N)nc(NCc2ccccc2)c(C#N)c1-c1ccccc1Cl"
subject_of_test = "SF-539 CNS"
assigned_class = "no"

[[record]]
compound = "CCN(CC)CCCC(Cc1ccccc1)Nc1c2ccc(Cl)cc2nc2ccc(OC)cc12 (stereo unspecified)"
subject_of_test = "SF-539 CNS"
assigned_class = "no"

[[record]]
compound = "CCOC(=O)c1c(Cl)c2c(n1Cc1cccc(OC)c1)-c1oncc1CC2"
subject_of_test = "SF-539 CNS"
assigned_class = "no"

[[record]]
compound = "O=C(NCCNc1nccc(-c2c(-c3ccc(F)cc3)nc3sccn23)n1)c1ccccc1"
subject_of_test = "SF-539 CNS"
assigned_class = "no"

[[record]]
compound = "Clc1ccc(C2=NN[C@H](c3cn(-c4ccccc4)nc3-c3ccccc3)C2)cc1"
subject_of_test = "SF-539 CNS"
assigned_class = "no"

[[record]]
compound = "CC1(C)N=C(N)N=C(N)N1c1cccc(CCCCOc2ccccc2)c1"
subject_of_test = "SF-539 CNS"
assigned_class = "yes"

[[record]]
compound = "COC1=CC(c2ccc[nH]2)=N/C1=C\\c1[nH]c(C)c(C(C)=O)c1C"
subject_of_test = "SF-539 CNS"
assigned_class = "no"

